Give measured melting point for each item. Keep answers brief.

// query Give recorded melting point. O=C1NC(=O)C(Cc2ccc(OCCON=Cc3cccc(-c4ccccc4)c3)cc2)S1 (stereo not given)
// result 128 °C

// query Query melting point for CN1Cc2c(Br)cc3c(c2C1)NC(=O)C3=O
// result > 300 °C

// query Tell me melting point reported for CNC(=O)c1cc2c(Oc3ccc(-n4cccn4)cc3)cncc2s1
// result 192 to 194 °C

// query Output melting point of CC1CCCN(C2c3cc4nonc4cc3OC(C)(C)C2O)C1=O (stereo not given)
// result 146 to 149 °C

// query Please look at this compound and report its melting point: CCCNC(=O)C1(CCCCO)c2ccccc2-c2ccccc21
// result 73 to 75 °C

// query Annotate the compound COC(=O)c1oc2cc(S)ccc2c1C with its measured melting point.
// result 118 to 120 °C

// query Output measured melting point for this item: Cc1cc(-c2cc(C(F)(F)F)nc(-c3ccnc(-c4cccc(S(N)(=O)=O)c4)c3)n2)ccc1Cl
// result 234 °C

// query Give a short answer stating reported melting point for O=c1oc2ccccc2c(OCCCN2CCOCC2)c1-c1ccccc1 .
// result 82 °C

// query Give recorded melting point. CC(=O)OCC1OC(n2c(Cl)nc3cc(Cl)c(Cl)cc32)C(O)C1O (stereo not given)
// result 82 to 87 °C

// query Tell me measured melting point for CCOC(=O)C1=Cc2cc(-c3ccc(C)cc3)ccc2OC1C (stereo not given) please.
// result 82 to 84 °C

// query Report melting point, nothing else, for this compound: CC(C#N)c1ccc(O)c(N)c1 (stereo not given)
// result 110 to 112 °C

// query # return recorded melting point for input O=S(=O)(Nc1ccc(Cl)nn1)c1ccccc1-c1ccccc1
// result 196 to 198 °C

// query Indicate its recorded melting point; the compound in question is CC(C)c1ccc2c(c1)c(-c1ccccc1Cl)c(NC(=O)Nc1ccc(F)cc1F)c(=O)n2C
// result 152 to 156 °C

// query Determine its reported melting point: COc1ccc2c(c1)C(CCN1CC=C(c3ccccc3)CC1)C(C)N2C(C)=O (stereo not given)
// result 113 to 115 °C

// query Give melting point for the following compound: CN1CC2CC2(C(=O)O)C1 (stereo not given)
// result 193 to 195 °C

// query Given the compound COc1ccc(CCC(=O)CC(=O)CCc2ccc(OC)cc2)cc1 , write its reported melting point.
// result 73.5 to 76.2 °C

// query Please supply the value of reported melting point for the item CN(C(=O)CCCOc1ccc2nc3[nH]c(=O)n(C)c3cc2c1)C1CCCCCC1
// result 234 to 236 °C

// query Kindly indicate its recorded melting point. Item: CCC(CC)(COc1nn2ncnc2cc1C)CS(N)(=O)=O
// result 189 to 192 °C

// query Read off the recorded melting point for CCOCCOc1ccc(-c2ccc3c(c2)C=C(C(=O)Nc2ccc(CN(C)C4CCOCC4)cc2)CCS3(=O)=O)cc1C
// result 212 to 213 °C

// query Please supply the value of reported melting point for the item COc1ccc(C(=O)N(C)CC(O)COc2cccc3[nH]c4ccccc4c23)cc1OC (stereo not given)
// result 77 to 80 °C

###

Provide the recorded melting point for the entries that follow.

// query Please look at this compound and report its melting point: CCNC(C)CCNC(CC(=O)O)C(=O)OC1CCCCC1 (stereo not given)
// result 124 to 128 °C

// query Please report the measured melting point for O=C(NCCc1cccc2ccccc12)C(F)(F)F
// result 79 to 80 °C

// query Specify measured melting point for O=C1c2ccc(C#Cc3ccccc3)cc2C(=O)N1c1ccc2c(c1)C=C2 .
// result 194 to 195 °C

// query Identify measured melting point corresponding to CN1C(=O)Cc2c(Cl)cc(Cl)cc21
// result 144 to 145 °C

// query Input Cc1nc2ccccc2c(NCCO)c1Br , output reported melting point.
// result 154 to 155 °C

// query Please report the measured melting point for COC(=O)c1ccc(/C=C\[C@@H]2C[C@@H](NS(=O)(=O)c3ccc(Cl)cc3)CN2)cc1
// result 189 to 190 °C

// query Answer with the recorded melting point for the compound listed here: Cn1nnnc1C(CO)=C(c1ccc(F)cc1)c1ccc(F)cc1
// result 141 to 142 °C

// query Recall and state the measured melting point for CCOC(=O)C(=Cc1ccccc1)S(=O)(=O)NC(=O)Nc1nc(OC)cc(OC)n1 .
// result 140 to 143 °C

// query Tell me measured melting point for CCOC(=O)c1c(CN(CC)CC)nc2sc3c(c2c1-c1ccc(OC)c(OC)c1)CCN(C(=O)Nc1ccccc1)C3 please.
// result 154 to 155 °C

// query Note melting point for the compound shown: COc1ccc(C(=O)CCC(=O)N[C@@H](Cc2ccccc2)C(=O)O)cc1
// result 131 to 133 °C
